assay: activators of NF-kB expression in neurons, primary screen, cell-based, HTS (AID 1239); conditions: human neuronal cells, NF-kB reporter expression; at 12.5 µM; active compounds read high
Out of some 190,000 compounds screened, about 3,100 (1.6%) were called active. The full list was thinned out, with actives kept by preference.
Answer N if fold change is under 1, and Y if it is 1 or more.

### Prompt Textbook exercise: given the entry `CN1CCN(c2ccc(NC(=O)c3ccc4c(c3)OCCO4)cc2Cl)CC1` , state whether its fold change is greater than or equal to 1.
### Response Y

Others:
### Prompt Assess whether reported fold change for `Cc1csc(NC(=S)Nc2cccc(Cl)c2)n1` sits at 1 or higher.
### Response Y

### Prompt Hi team, for `Clc1ccc(-c2nnc(SCc3nc4ccccc4s3)o2)cc1` , is the recorded fold change at or above 1?
### Response Y

---

experiment: activators of NF-kB expression in neurons, primary screen, cell-based, HTS (AID 1239); conditions: human neuronal cells, NF-kB reporter expression; at 12.5 µM; active compounds read high
Out of some 190,000 compounds screened, about 3,100 (1.6%) were called active. For the sample, actives were picked, then their nearest neighbours and some compounds at random.
Endpoint: fold change
Give bare numbers.

### Prompt Return fold change for the following molecule: `COc1ccc(OC)c(C(=O)c2ccc(C(=O)N3CCN(Cc4csc(C)n4)CC3)cc2)c1`
### Response 1.07

### Prompt Provide only the value of recorded fold change for `O=C(O)c1ccc2c(c1)C(=O)N(c1ccc(/C=C/C(=O)c3ccccc3)cc1)C2=O`
### Response 1.2

### Prompt Supply fold change value. Item: CN1c2ccccc2-c2nc3ccccc3n2C1c1ccco1 (stereo not given)
### Response 1.03

### Prompt Tell me measured fold change for `Cn1c(-c2ccco2)nc2cc3ccccc3cc21` please.
### Response 6.6

Turning now to a further record.
### Prompt Quick one: give measured fold change for `CN(c1nc2ccccc2n2c(-c3ccco3)nnc12)S(=O)(=O)c1ccccc1`
### Response 0.98

---

Field: fold change. Provide a value for each of the molecules that follow.
experiment: activators of NF-kB expression in neurons, primary screen, cell-based, HTS (AID 1239); conditions: human neuronal cells, NF-kB reporter expression; at 12.5 µM; active compounds read high
The whole screen tested about 190,000 compounds, of which about 3,100 (1.6%) were called active. This excerpt belongs to a sample that is enriched for actives.
Numbers only.

Field: example entries. Status: answers known.
### Prompt Please list fold change recorded for the molecule `COC(=O)c1ccc(COC(=O)c2cnccn2)cc1`
### Response 1.22

### Prompt // fetch fold change given entry `CCN(CC(=O)NCCc1ccccc1)S(=O)(=O)c1ccccc1`
### Response 1.36

### Prompt Given `CN(C)CCOc1cccc(Br)c1` , respond with its fold change.
### Response 1.12

Items follow; give fold change for each.
1. Cc1ccc(N(NC(=O)C(C)(C)O)C(=O)c2ccccc2)cc1C
2. Cc1ccnc(NC(=O)CCC(=O)N(CC(=O)NCc2ccccc2)Cc2ccco2)c1
3. CCCC(O)(CCC)C(=O)NN(C(=O)CCl)c1cccc(C)c1

### Response
[1.37, 0.85, 0.5]

---

assay: activators of NF-kB expression in neurons, primary screen, cell-based, HTS (AID 1239); conditions: human neuronal cells, NF-kB reporter expression; at 12.5 µM
The whole screen tested about 190,000 compounds, of which about 3,100 (1.6%) were called active. No stated cut-off is given here; in the data, active means fold change above about 3.3; inconclusive means no clear call, values can overlap the other calls; inactive means below that. Shown is part of a subset that was picked to be rich in actives.
Can you answer with just one of these options? Y = active, N = inactive

Past entries and their recorded results:
### Prompt Field: outcome | Entry: O=C(COc1ccc(Cl)cc1)NCc1nnc(SCC(=O)NCC2CCCO2)o1 (stereo unspecified)
### Response N

### Prompt Hey, what did the test say about `NC(N)=N/N=C/c1ccc(Cl)c([N+](=O)[O-])c1` ?
### Response N

### Prompt Write down the call the test reported for this molecule. Item: `COc1ccc(C(=S)Nc2ccccc2)cc1`
### Response N

### Prompt What call does the record list for `N#C/C=C\Oc1ccc(Cl)cc1N` ?
### Response Y

### Prompt // return assay outcome for `Cc1ccc(C(=O)N/C(=C\c2cccs2)C(=O)NCCc2ccccn2)cc1C`
### Response N

Attention now turns to another entry.
### Prompt # lookup: test call for COc1ccc(NC(=S)N2N=CCC2c2ccccc2)cc1 (stereo unspecified)
### Response Y
